Listed below: Activity values for each entry.
# target.desc: ATP-dependent translocase ABCB1 (Homo sapiens, UniProt P08183)
# Sequence (P08183 whole entry): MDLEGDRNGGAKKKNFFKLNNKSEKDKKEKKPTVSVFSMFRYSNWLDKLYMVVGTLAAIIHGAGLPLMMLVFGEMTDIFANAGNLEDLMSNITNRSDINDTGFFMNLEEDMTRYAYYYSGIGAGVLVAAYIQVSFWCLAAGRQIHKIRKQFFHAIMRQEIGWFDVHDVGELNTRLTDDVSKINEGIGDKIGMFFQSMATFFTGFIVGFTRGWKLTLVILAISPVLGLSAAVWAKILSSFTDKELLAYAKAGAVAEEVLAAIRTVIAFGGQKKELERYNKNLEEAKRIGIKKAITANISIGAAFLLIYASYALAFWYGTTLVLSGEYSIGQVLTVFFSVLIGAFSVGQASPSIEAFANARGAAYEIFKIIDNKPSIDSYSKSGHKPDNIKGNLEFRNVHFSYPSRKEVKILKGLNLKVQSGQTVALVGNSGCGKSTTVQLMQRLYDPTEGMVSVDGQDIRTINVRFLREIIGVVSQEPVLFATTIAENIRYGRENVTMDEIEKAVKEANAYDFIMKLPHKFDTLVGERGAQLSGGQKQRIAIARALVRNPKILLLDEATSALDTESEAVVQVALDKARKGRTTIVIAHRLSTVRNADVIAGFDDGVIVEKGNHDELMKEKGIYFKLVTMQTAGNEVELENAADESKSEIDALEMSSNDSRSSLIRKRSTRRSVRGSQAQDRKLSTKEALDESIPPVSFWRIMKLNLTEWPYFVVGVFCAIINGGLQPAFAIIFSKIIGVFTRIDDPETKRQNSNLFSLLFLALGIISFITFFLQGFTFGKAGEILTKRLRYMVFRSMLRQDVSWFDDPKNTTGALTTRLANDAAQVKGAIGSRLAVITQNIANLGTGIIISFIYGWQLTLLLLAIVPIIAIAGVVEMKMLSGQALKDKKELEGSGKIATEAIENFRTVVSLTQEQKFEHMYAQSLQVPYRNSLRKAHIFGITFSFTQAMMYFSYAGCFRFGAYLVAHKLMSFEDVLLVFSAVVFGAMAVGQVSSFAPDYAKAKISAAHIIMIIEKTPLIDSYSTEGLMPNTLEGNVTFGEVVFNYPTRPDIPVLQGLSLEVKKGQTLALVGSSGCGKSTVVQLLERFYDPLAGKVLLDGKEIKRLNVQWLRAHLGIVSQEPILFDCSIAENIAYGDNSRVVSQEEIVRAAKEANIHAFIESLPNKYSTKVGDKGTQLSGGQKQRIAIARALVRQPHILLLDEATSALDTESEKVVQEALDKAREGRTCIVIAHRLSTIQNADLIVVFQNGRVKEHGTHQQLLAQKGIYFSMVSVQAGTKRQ
# test.protocol: Inhibition of MDR1-mediated efflux-pump activity in mouse L5178Y cells expressing human MDR1 assessed as side scattered light at 2 uM preincubated for 10 mins followed by rhodamine-123 addition measured after 20 mins by flow cytometry (reference value: 194.6 to 286.4)
# Format: cell-based

compound: COc1ccc(C(=O)O[C@H]2CC[C@@H]3C(=C[C@H](OC)[C@@H]4[C@@]3(C)CC[C@]3(C)[C@@H]([C@H](C)C[C@H](C=C(C)C)OC(=O)c5ccc(OC)cc5)CC[C@@]43C)C2(C)C)cc1 [KARAVOATE N]
Activity: 184.1
--
compound: C[C@H](C/C=C/C(C)(C)O)[C@H]1CC[C@@]2(C)[C@@H]3[C@@H](O)C=C4[C@@H](CC[C@H](O)C4(C)C)[C@]3(C)C[C@@H](O)[C@]12C
Activity: 254.7
--
compound: CO[C@H]1C=C2[C@@H](CC[C@H](O)C2(C)C)[C@]2(C)C[C@@H](O)[C@]3(C)[C@@H]([C@H](C)C/C=C/C(C)(C)O)CC[C@@]3(C)[C@H]12
Activity: 249.6
--
compound: C[C@H](C/C=C/C(C)(C)O)[C@H]1CC[C@@]2(C)[C@@H]3[C@@H](O)C=C4[C@@H](CC[C@H](O)C4(C)C)[C@]3(C)CC[C@]12C
Activity: 249
--
compound: CC(C)=C[C@@H](C[C@@H](C)[C@H]1CC[C@@]2(C)[C@@H]3[C@@H](OC(=O)c4ccccc4)C=C4[C@@H](CC[C@H](OC(=O)c5ccccc5)C4(C)C)[C@]3(C)CC[C@]12C)OC(=O)c1ccccc1
Activity: 188.7
--
compound: CO[C@H]1C=C2[C@@H](CC[C@H](O)C2(C)C)[C@]2(C)CC[C@]3(C)[C@@H]([C@H](C)C[C@H](C=C(C)C)OC(=O)c4ccc([N+](=O)[O-])cc4)CC[C@@]3(C)[C@H]12 [KARAVOATE I]
Activity: 184.1
--
compound: CC(C)=C[C@H](O)C[C@@H](C)[C@H]1CC[C@@]2(C)[C@@H]3C(O[C@H]4O[C@@H](CO)[C@H](O)[C@@H](O)[C@@H]4O)C=C4[C@@H](CC[C@H](O)C4(C)C)[C@]3(C)CC[C@]12C (stereo partly drawn)
Activity: 235.6
--
compound: COc1ccc(C(=O)O[C@@H](C=C(C)C)C[C@@H](C)[C@H]2CC[C@@]3(C)[C@@H]4[C@@H](OC)C=C5[C@@H](CC[C@H](O)C5(C)C)[C@]4(C)CC[C@]23C)cc1 [KARAVOATE M]
Activity: 192.3
--
compound: CCCC(=O)O[C@H]1CC[C@@H]2C(=C[C@H](OC)[C@@H]3[C@@]2(C)CC[C@]2(C)[C@@H]([C@H](C)C[C@H](C=C(C)C)OC(=O)CCC)CC[C@@]32C)C1(C)C [KARAVOATE F]
Activity: 218.3
--
compound: CC(=O)C[C@@H](C)[C@H]1CC[C@@]2(C)[C@@H]3C(=O)C=C4[C@@H](CC[C@H](O)[C@]4(C)CO)[C@]3(C)CC[C@]12C
Activity: 254.3
--
compound: CC(C)=C[C@H](O)C[C@@H](C)[C@H]1CC[C@@]2(C)[C@@H]3[C@@H](O)C=C4[C@@H](CC[C@H](O)[C@]4(C)CO)[C@]3(C)CC[C@]12C
Activity: 259
--
compound: CO[C@H]1C=C2[C@@H](CC[C@H](O)[C@]2(C)CO)[C@]2(C)CC[C@]3(C)[C@@H]([C@H](C)C[C@@H](O)C=C(C)C)CC[C@@]3(C)[C@H]12
Activity: 258.8
--
compound: CO[C@H]1C=C2[C@@H](CC[C@H](O)C2(C)C)[C@]2(C)CC[C@]3(C)[C@@H]([C@H](C)C[C@H](C=C(C)C)OC(=O)/C=C/c4ccccc4)CC[C@@]3(C)[C@H]12 [KARAVOATE O]
Activity: 197.9
--
compound: CC(C)=C[C@H](O)C[C@@H](C)[C@H]1CC[C@@]2(C)[C@@H]3[C@@H](O)C=C4[C@@H](CC[C@H](O)C4(C)C)[C@]3(C)CC[C@]12C
Activity: 202.1
--
compound: CO[C@H]1C=C2[C@@H](CC[C@H](OC(=O)c3ccc([N+](=O)[O-])cc3)C2(C)C)[C@]2(C)CC[C@]3(C)[C@@H]([C@H](C)C[C@H](C=C(C)C)OC(=O)c4ccc([N+](=O)[O-])cc4)CC[C@@]3(C)[C@H]12 [KARAVOATE J]
Activity: 186.3
--
compound: CO[C@H]1C=C2[C@@H](CC[C@H](O)C2(C)C)[C@]2(C)C[C@@H](O)[C@]3(C)[C@@H]([C@H](C)C[C@@H](O)C=C(C)C)CC[C@@]3(C)[C@H]12
Activity: 241.8
--
compound: CO[C@H]1C=C2[C@@H](CC[C@H](O)C2(C)C)[C@]2(C)CC[C@]3(C)[C@@H]([C@H](C)C[C@H](C=C(C)C)OC(=O)CCC(=O)O)CC[C@@]3(C)[C@H]12
Activity: 184.1
--
compound: CO[C@H]1C=C2[C@@H](CC[C@H](OC(=O)/C=C/c3ccccc3)C2(C)C)[C@]2(C)CC[C@]3(C)[C@@H]([C@H](C)C[C@H](C=C(C)C)OC(=O)/C=C/c4ccccc4)CC[C@@]3(C)[C@H]12 [KARAVOATE P]
Activity: 191.2
